Origin of the recorded values: ChEMBL document CHEMBL6177915

# assay_overview: Inhibition of Plasmodium falciparum enoyl ACP reductase
measure_name: IC50 (nM)
Form entry: value (nM) — number only.

Request: GET /values?readout=IC50&item= `N#Cc1ccc(Oc2ccc(Cl)cc2Cl)c(O)c1`
Response: 49

###

In this section we review reported selectivity ratio values for a set of compounds.
# assay_overview: Selectivity index, ratio of CC50 for Cytotoxicity against African green monkey Vero E6 cells to IC50 for Antiplasmodial activity against CQ-resistant Plasmodium falciparum W2
# Assay type: toxicity, cell-based
# assay_context: read-out: Ratio CC50/IC50

Some compounds with known selectivity ratio results, for comparison:
{"smiles_string": "O=[N+]([O-])c1cc(Oc2ccc(Cl)cc2Cl)c(OCc2cn(CCCCCOc3cc(Cl)ccc3Oc3ccc(Cl)cc3Cl)nn2)cc1Cl", "result": 3.8}
{"smiles_string": "O=[N+]([O-])c1cc(Oc2ccc(Cl)cc2Cl)c(OCc2cn(CCCCOc3cc(Cl)ccc3Oc3ccc(Cl)cc3Cl)nn2)cc1Cl", "result": 3.3}
{"smiles_string": "Clc1ccc(Oc2ccc(Cl)cc2OCCCn2cc(COc3cc(Cl)ccc3Oc3ccc(Cl)cc3Cl)nn2)c(Cl)c1", "result": 4.2}

Here is the next item to consider.
Request: Entry `Clc1ccc(Oc2ccc(Cl)cc2OCCCCCCOc2cc(Cl)ccc2Oc2ccc(Cl)cc2Cl)c(Cl)c1` has what selectivity ratio?
Response: 3.1

###

Reported CC50 at 48 h values for a set of molecules
# assay_overview: Cytotoxicity against African green monkey Vero E6 cells assessed as cell viability measured after 48 hrs incubation by MTT assay
# Format: toxicity, cell-based, Vero C1008
# assay_context: chlorocebus sabaeus
// return numeric value only (unit: µM, not printed)

Request: // lookup CC50 at 48 h for `O=[N+]([O-])c1cc(Oc2ccc(Cl)cc2Cl)c(OCc2cn(CCCCOc3cc(Cl)ccc3Oc3ccc(Cl)cc3Cl)nn2)cc1Cl`
Response: 83.9

###

# assay_overview: Cytotoxicity against African green monkey Vero E6 cells assessed as cell viability measured after 48 hrs incubation by MTT assay
# Type: toxicity, cell-based, Vero C1008
# assay_context: chlorocebus sabaeus
Items are presented alongside their recorded CC50 at 48 h.
Answer format reminder: number followed by unit.

{"smiles_string": "CCNCc1cc(Nc2ccnc3cc(Cl)ccc23)ccc1O", "CC50 at 48 h": "87 µM"}
{"smiles_string": "Clc1ccc(Oc2ccc(Cl)cc2OCCCCCCOc2cc(Cl)ccc2Oc2ccc(Cl)cc2Cl)c(Cl)c1", "CC50 at 48 h": "63.3 µM"}
{"smiles_string": "Clc1ccc(Oc2ccc(Cl)cc2OCCCOc2cc(Cl)ccc2Oc2ccc(Cl)cc2Cl)c(Cl)c1", "CC50 at 48 h": "81.5 µM"}
{"smiles_string": "Clc1ccc(Oc2ccc(Cl)cc2OCCOc2cc(Cl)ccc2Oc2ccc(Cl)cc2Cl)c(Cl)c1", "CC50 at 48 h": "90.9 µM"}

Next, consider the following molecule.
Request: Fill blank: measured CC50 at 48 h of the molecule `O=[N+]([O-])c1cc(Oc2ccc(Cl)cc2Cl)c(OCc2cn(CCCCCOc3cc(Cl)ccc3Oc3ccc(Cl)cc3Cl)nn2)cc1Cl` is ____.
Response: 116 µM

###

# assay_overview: Selectivity index, ratio of CC50 for Cytotoxicity against African green monkey Vero E6 cells to IC50 for Antiplasmodial activity against CQ-resistant Plasmodium falciparum W2
# Assay type: toxicity, cell-based
# assay_context: read-out: Ratio CC50/IC50
The label True is reserved for selectivity ratio strictly under 3; False covers values equal to or above it.

Reference set, count: 5
{"smiles_string": "Clc1ccc(Oc2ccc(Cl)cc2OCCCCn2cc(COc3cc(Cl)ccc3Oc3ccc(Cl)cc3Cl)nn2)c(Cl)c1", "label": "False"}
{"smiles_string": "CCNCc1cc(Nc2ccnc3cc(Cl)ccc23)ccc1O", "label": "False"}
{"smiles_string": "O=[N+]([O-])c1cc(Oc2ccc(Cl)cc2Cl)c(OCc2cn(CCCOc3cc(Cl)ccc3Oc3ccc(Cl)cc3Cl)nn2)cc1Cl", "label": "False"}
{"smiles_string": "Clc1ccc(Oc2ccc(Cl)cc2OCCCOc2cc(Cl)ccc2Oc2ccc(Cl)cc2Cl)c(Cl)c1", "label": "True"}
{"smiles_string": "Oc1cc(Cl)c(NCc2cn(CCCCOc3cc(Cl)ccc3Oc3ccc(Cl)cc3Cl)nn2)cc1Oc1ccc(Cl)cc1Cl", "label": "False"}

Read the next record carefully.
Request: Could you please tell me whether selectivity ratio recorded for `Clc1ccc(Oc2ccc(Cl)cc2OCCOc2cc(Cl)ccc2Oc2ccc(Cl)cc2Cl)c(Cl)c1` is less than 3?
Response: False

###

Consider the following compounds and their measured CC50 at 48 h readings.
# assay_overview: Cytotoxicity against African green monkey Vero E6 cells assessed as cell viability measured after 48 hrs incubation by MTT assay
# Format: toxicity, cell-based, Vero C1008
# assay_context: chlorocebus sabaeus
Record the value in µM, omitting the unit from your answer.

For orientation, consider the following solved cases.
{"smiles_string": "Oc1cc(Cl)c(NCc2cn(CCCCCOc3cc(Cl)ccc3Oc3ccc(Cl)cc3Cl)nn2)cc1Oc1ccc(Cl)cc1Cl", "CC50 at 48 h / µM": 75}
{"smiles_string": "Clc1ccc(Oc2ccc(Cl)cc2OCCn2cc(COc3cc(Cl)ccc3Oc3ccc(Cl)cc3Cl)nn2)c(Cl)c1", "CC50 at 48 h / µM": 105}

Here is another compound to look at.
Request: Recorded CC50 at 48 h for `Clc1ccc(Oc2ccc(Cl)cc2OCCCCn2cc(COc3cc(Cl)ccc3Oc3ccc(Cl)cc3Cl)nn2)c(Cl)c1` , please?
Response: 76.5

###

# assay_overview: Cytotoxicity against African green monkey Vero E6 cells assessed as cell viability measured after 48 hrs incubation by MTT assay
# Format: toxicity, cell-based, Vero C1008
# assay_context: chlorocebus sabaeus
measure_name: CC50 at 48 h (µM)
Give the number; µM is assumed, so skip it.

The cases that follow already have their CC50 at 48 h on record.
{"smiles_string": "Clc1ccc(Oc2ccc(Cl)cc2OCCCCCOc2cc(Cl)ccc2Oc2ccc(Cl)cc2Cl)c(Cl)c1", "result_number": 70.2}
{"smiles_string": "O=[N+]([O-])c1cc(Oc2ccc(Cl)cc2Cl)c(OCc2cn(CCOc3cc(Cl)ccc3Oc3ccc(Cl)cc3Cl)nn2)cc1Cl", "result_number": 91.8}
{"smiles_string": "O=[N+]([O-])c1cc(Oc2ccc(Cl)cc2Cl)c(OCc2cn(CCCOc3cc(Cl)ccc3Oc3ccc(Cl)cc3Cl)nn2)cc1Cl", "result_number": 81.9}
{"smiles_string": "Oc1cc(Cl)c(NCc2cn(CCCOc3cc(Cl)ccc3Oc3ccc(Cl)cc3Cl)nn2)cc1Oc1ccc(Cl)cc1Cl", "result_number": 76.8}

Request: What CC50 at 48 h value was documented for this molecule, `Clc1ccc(Oc2ccc(Cl)cc2OCCCn2cc(COc3cc(Cl)ccc3Oc3ccc(Cl)cc3Cl)nn2)c(Cl)c1` ?
Response: 103

Request: Please look up its CC50 at 48 h: `Clc1ccc(Oc2ccc(Cl)cc2OCCCCCn2cc(COc3cc(Cl)ccc3Oc3ccc(Cl)cc3Cl)nn2)c(Cl)c1`
Response: 64.6

###

# assay_overview: Cytotoxicity against African green monkey Vero E6 cells assessed as cell viability measured after 48 hrs incubation by MTT assay
# Assay type: toxicity, cell-based, Vero C1008
# assay_context: chlorocebus sabaeus
The threshold is 100 µM. Values of CC50 at 48 h beneath it are tagged satisfied; values meeting or exceeding it are tagged not satisfied.

{"smiles_string": "O=[N+]([O-])c1cc(Oc2ccc(Cl)cc2Cl)c(OCc2cn(CCCCCCOc3cc(Cl)ccc3Oc3ccc(Cl)cc3Cl)nn2)cc1Cl", "label": "satisfied"}
{"smiles_string": "Oc1cc(Cl)c(NCc2cn(CCCCCCOc3cc(Cl)ccc3Oc3ccc(Cl)cc3Cl)nn2)cc1Oc1ccc(Cl)cc1Cl", "label": "satisfied"}

Request: Could you please tell me whether CC50 at 48 h recorded for `Oc1cc(Cl)c(NCc2cn(CCCCOc3cc(Cl)ccc3Oc3ccc(Cl)cc3Cl)nn2)cc1Oc1ccc(Cl)cc1Cl` is less than 100 µM?
Response: satisfied

Request: Given `Clc1ccc(Oc2ccc(Cl)cc2OCCCCCCn2cc(COc3cc(Cl)ccc3Oc3ccc(Cl)cc3Cl)nn2)c(Cl)c1` , is recorded CC50 at 48 h strictly lower than 100 µM?
Response: not satisfied

###

# assay_overview: Selectivity index, ratio of CC50 for Cytotoxicity against African green monkey Vero E6 cells to IC50 for Antiplasmodial activity against CQ-resistant Plasmodium falciparum W2
# Type: toxicity, cell-based
# assay_context: read-out: Ratio CC50/IC50
measure_name: selectivity ratio
Answer with the value's number alone.

Worked cases, answers included:
{"smiles_string": "O=[N+]([O-])c1cc(Oc2ccc(Cl)cc2Cl)c(OCc2cn(CCCCCCOc3cc(Cl)ccc3Oc3ccc(Cl)cc3Cl)nn2)cc1Cl", "result_number": 2.2}
{"smiles_string": "Oc1cc(Cl)c(NCc2cn(CCCOc3cc(Cl)ccc3Oc3ccc(Cl)cc3Cl)nn2)cc1Oc1ccc(Cl)cc1Cl", "result_number": 7}
{"smiles_string": "Clc1ccc(Oc2ccc(Cl)cc2OCCCCCOc2cc(Cl)ccc2Oc2ccc(Cl)cc2Cl)c(Cl)c1", "result_number": 2}

Request: Reported selectivity ratio for `O=[N+]([O-])c1cc(Oc2ccc(Cl)cc2Cl)c(OCc2cn(CCOc3cc(Cl)ccc3Oc3ccc(Cl)cc3Cl)nn2)cc1Cl` : what is it?
Response: 3.6

Request: Return reported selectivity ratio; argument: `Oc1cc(Cl)c(NCc2cn(CCCCCCOc3cc(Cl)ccc3Oc3ccc(Cl)cc3Cl)nn2)cc1Oc1ccc(Cl)cc1Cl`
Response: 2.6

Request: State the recorded selectivity ratio for this entry: `Oc1cc(Cl)c(NCc2cn(CCOc3cc(Cl)ccc3Oc3ccc(Cl)cc3Cl)nn2)cc1Oc1ccc(Cl)cc1Cl`
Response: 4.5

Request: What value of measured selectivity ratio is listed for `Oc1cc(Cl)c(NCc2cn(CCCCCOc3cc(Cl)ccc3Oc3ccc(Cl)cc3Cl)nn2)cc1Oc1ccc(Cl)cc1Cl` ?
Response: 3.8
